Recorded IC50 values for a group of molecules are listed next.
System: A549
Test: Growth inhibition of human A549 cells after 96 hrs by sulforhodamine B assay
Type: functional, cell-based
Details: A549, 96 h

smiles-structure	measurement-units	IC50
COc1cc(OC)cc(N2CCN(C(=O)Nc3nc4cc(Cl)ccc4nc3OC)CC2)c1	nM	73
COc1cc(OC)cc(N2CCN(C(=O)Nc3nc4c(C)cccc4nc3OC)CC2)c1	nM	56
COc1cc(OC)cc(N2CCN(C(=O)Nc3nc4cc(C)ccc4nc3OC)CC2)c1	nM	55
COc1cc(OC)cc(N2CCN(C(=O)Nc3nc4c(OC)cccc4nc3OC)CC2)c1	nM	64
COc1cc(OC)cc(N2CCN(C(=O)Nc3nc4cc(F)ccc4nc3OC)CC2)c1	nM	21
